assay: Quantitative High-Throughput drug screen in 47 multiple myeloma cell lines against the NCATS MIPE library collection: MM1S_ATCC cell viability assay (AID 1918980); conditions: MM1S myeloma viability, CellTiter-Glo ATP luminescence, 48 h; series mostly up to 45.8 µM; further: nearly all actives have a fitted effect of over 45% in size
Results filed as inconclusive are left out. Activity calls are given as the source filed them. The call rests on the fitted dose curve; in most records, active means well fitted cell-killing curve with a large enough effect; inconclusive means small, poorly fitted or top-dose-only effect, or effect the other way; inactive means no such curve, though single readings can be large or run the other way.
Tick one outcome: label 1 = active, label 0 = inactive

| Compound | Answer label |
| --- | --- |
| CC(=O)O[C@H]1C(=O)[C@@]2(C)C([C@H](OC(=O)c3ccccc3)[C@]3(O)C[C@H](OC(=O)[C@H](O)[C@@H](NC(=O)c4ccccc4)c4ccccc4)C(C)=C1C3(C)C)[C@]1(OC(C)=O)CO[C@@H]1C[C@@H]2O (some centres undefined) | label 0 |
| Nc1ncn([C@H]2C[C@H](O)[C@@H](CO)O2)c(=O)n1 | label 1 |
| Cn1c(NCCN(CCO)CCCc2ccc([N+](=O)[O-])cc2)cc(=O)n(C)c1=O | label 1 |
| CCCc1cc(=O)[nH]c(=S)[nH]1 | label 1 |
| CC1Cc2ccccc2N1NC(=O)c1ccc(Cl)c(S(N)(=O)=O)c1 (centres undefined) | label 1 |
| O=C(OC1C[C@H]2CC[C@@H](C1)[N+]21CCCC1)C(O)(c1ccccc1)c1ccccc1 (some centres undefined) | label 0 |

**Q:** // return assay outcome for `O=c1cc(N2CCOCC2)oc2c(-c3ccccc3)cccc12`
**A:** label 1

**Q:** // return assay outcome for `CC(C)c1ccc2c(c1)c(SC(C)(C)C)c(CC(C)(C)C(=O)O)n2Cc1ccc(Cl)cc1`
**A:** label 1

====

test: qHTS of pediatric cancer cell lines to identify multiple opportunities for drug repurposing: Primary screen for DAOY cells (AID 1347090); details: DAOY medulloblastoma viability, CellTiter-Glo luminescence, 48 h; series mostly up to 46 µM;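 further: plate controls were DMSO for no effect and bortezomib for full effect; nearly all actives have a fitted effect of over 55% in size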
Records with an inconclusive call do not appear. Calls of active or inactive are those of the source. Calls come from the whole dose curve; as a rule, active = well fitted cell-killing curve with a large enough effect; inconclusive = small, poorly fitted or top-dose-only effect; inactive = flat fitted curve, though single readings scatter.
Tick one outcome: true for active, false for inactive

Illustrative cases are given below, each with its answer.
| Compound | Answer label |
| --- | --- |
| O=C(O)c1cccnc1Nc1cccc(C(F)(F)F)c1 | false |
| CCC1=C(C)CN(C(=O)NCCc2ccc(S(=O)(=O)NC(=O)NC3CCC(C)CC3)cc2)C1=O (stereo unspecified) | false |
| COc1cc(C(C)=O)ccc1OCCCN1CCC(c2noc3cc(F)ccc23)CC1 | false |
| CC(C)c1ccc2oc3nc(N)c(C(=O)O)cc3c(=O)c2c1 | false |
| CC1Cc2ccccc2N1NC(=O)c1ccc(Cl)c(S(N)(=O)=O)c1 (stereo unspecified) | false |

Please turn your attention to the following entry.
**Q:** // return assay outcome for `Cc1ccc(NC(=O)c2ccc(CN3CCN(C)CC3)cc2)cc1Nc1nccc(-c2cccnc2)n1`
**A:** false

====

Assay: qHTS of pediatric cancer cell lines to identify multiple opportunities for drug repurposing: Primary screen for NB-EBc1 cells (AID 1347095)
Details: NB-EBc1 neuroblastoma viability, CellTiter-Glo luminescence, 48 h; series mostly up to 46 µM
Procedure: Drug repurposing or repositioning has been offered as a strategy for drug development in oncology programs. This approach has special potential for childhood cancers and other rare or orphan diseases, where the expected return on new drug development has been a disincentive to pharmaceuticals. […] We employed a titration-based paradigm (quantitative high-throughput screening or qHTS), where all compounds were tested at multiple concentrations for their effect on cell viability. […]
Records with an inconclusive call do not appear. Activity calls are given as the source filed them. Calls come from the whole dose curve; as a rule, active = well fitted cell-killing curve with a large enough effect; inconclusive = small, poorly fitted or top-dose-only effect; inactive = no such curve, though single readings can be large or run the other way. Peptide text beside a SMILES is read from it.
Tick one outcome: true (active), false (inactive)

Illustrative cases are given below, each with its answer.
| Molecule | Answer label |
| --- | --- |
| Nc1nc(OCc2ccccc2)c2[nH]cnc2n1 | true |
| CCCOc1ccc2nc(NC(=O)OC)[nH]c2c1 | true |
| CCN(CC)CCOc1ccc(Cc2ccccc2)cc1 | false |
| CC(C)[N+]1(C)[C@@H]2CC[C@H]1CC(OC(=O)C(CO)c1ccccc1)C2 (stereo partly specified) | false |
| COc1c2occc2cc2ccc(=O)oc12 | false |
| N=C(N)c1ccc2cc(OC(=O)c3ccc(N=C(N)N)cc3)ccc2c1 | false |
| C[C@]12CCC(=O)C=C1CC[C@@H]1[C@H]2[C@@H](O)C[C@@]2(C)[C@H]1CC[C@]2(O)C(=O)CO | false |
| COC(=O)[C@H](Cc1ccccc1)NC(=O)[C@@H](N)CC(=O)O (H-Asp-Phe-OMe) | false |
| Nc1cccc2c1CN(C1CCC(=O)NC1=O)C2=O (stereo unspecified) | false |
| COC(=O)C1=C(C)NC(C)=C(C(=O)OC(C)C)C1c1cccc2nonc12 (stereo unspecified) | false |

Please turn your attention to the following entry.
**Q:** // return assay outcome for `CN(c1nccc(=O)[nH]1)C1CCN(c2nc3ccccc3n2Cc2ccc(F)cc2)CC1`
**A:** false

====

assay: Quantitative High-Throughput drug screen in 47 multiple myeloma cell lines against the NCATS MIPE library collection: OPM1_PLB cell viability assay (AID 1918989); conditions: CellTiter-Glo, 48 h; series mostly up to 45.8 µM; further: nearly all actives have a fitted effect of over 40% in size
Inconclusive results are not listed. Calls of active or inactive are those of the source. Calls follow the shape of the dose curve; as a rule, active = well fitted cell-killing curve with a large enough effect; inconclusive = small, poorly fitted or top-dose-only effect, or effect the other way; inactive = no such curve, though single readings can be large or run the other way.
Tick one outcome: active, inactive

| Molecule | Answer label |
| --- | --- |
| NNc1nncc2ccccc12 | inactive |
| Oc1ccc(-c2nc(-c3ccc(F)cc3)c(-c3ccncc3)[nH]2)cc1 | active |
| CCc1nc(N)nc(N)c1-c1ccc(Cl)cc1 | active |
| NC(=NCc1ccccc1)NC(=O)c1nc(Cl)c(N)nc1N | active |
| CN(C)[C@@H](CCOc1cccc2ccccc12)c1ccccc1 | active |

**Q:** // return assay outcome for `CC1=C(C(=O)O)N2C(=O)[C@@H](NC(=O)[C@H](N)C3=CCC=CC3)[C@H]2SC1`
**A:** inactive

**Q:** // return assay outcome for `COc1ccccc1N1CCN(CCN(C(=O)C2CCCCC2)c2ccccn2)CC1`
**A:** inactive

**Q:** // return assay outcome for COc1cc2nc(N3CCN(C(=O)C4CCCO4)CC3)nc(N)c2cc1OC (stereo unspecified)
**A:** inactive

**Q:** // return assay outcome for CN(C)CCCC1(c2ccc(F)cc2)OCc2cc(C#N)ccc21 (stereo unspecified)
**A:** inactive

**Q:** // return assay outcome for `O=C(NCCO[N+](=O)[O-])c1cccnc1`
**A:** inactive

**Q:** // return assay outcome for `COc1cc(Nc2c(C#N)cnc3cc(OCCCN4CCN(C)CC4)c(OC)cc23)c(Cl)cc1Cl`
**A:** active

====

system: CP238; experiment: qHTS profiling for inhibitors of Plasmodium falciparum proliferation (AID 504749); further: nearly all actives have a fitted effect of over 60% in size; conditions: P. falciparum in erythrocytes, SYBR Green DNA, 72 h; series mostly up to 28.7 µM
Inconclusive results are not listed. The source made the active and inactive calls. The call rests on the fitted dose curve; in most records, active means well fitted inhibition curve with a large enough effect; inconclusive means small, poorly fitted or top-dose-only effect; inactive means flat fitted curve, though single readings scatter.
Tick one outcome: active, inactive

Illustrative cases are given below, each with its answer.
| Molecule | System under test | Answer label |
| --- | --- | --- |
| CCCCN(CCCC)CCC(O)c1cc2c(Cl)cc(Cl)cc2c2cc(C(F)(F)F)ccc12 (stereo not drawn) | CP238 | active |
| O=P(O)(O)C(O)(Cn1ccnc1)P(=O)(O)O | CP238 | inactive |
| O=C(O)c1cc(=O)c2c(OCC(O)COc3cccc4oc(C(=O)O)cc(=O)c34)cccc2o1 | CP238 | inactive |

**Q:** // return assay outcome for CC1=C(C)C(=O)C(C(CCCCCC(=O)O)c2ccccc2)=C(C)C1=O (stereo not drawn)
**A:** inactive

**Q:** // return assay outcome for CC(S)C(=O)NCC(=O)O (stereo not drawn)
**A:** inactive

====

test: Quantitative High-Throughput drug screen in 47 multiple myeloma cell lines against the NCATS MIPE library collection: KMS28BM_JCRB cell viability assay (AID 1919874); details: CellTiter-Glo ATP, 48 h; series mostly up to 45.8 µM; further: nearly all actives have a fitted effect of over 35% in size
Records with an inconclusive call do not appear. Calls of active or inactive are those of the source. Calls come from the whole dose curve; as a rule, active = well fitted cell-killing curve with a large enough effect; inconclusive = small, poorly fitted or top-dose-only effect, or effect the other way; inactive = no such curve, though single readings can be large or run the other way. Non-standard residues stand in square brackets, D forms with d. Residues, ends and D or L forms follow the SMILES beside them. *: point of attachment. Sta = CC(C)C[C@H](N)[C@@H](O)CC(=O)O; Isovaleryl = CC(C)CC(=O)*
Readout kind: outcome

| Compound | outcome |
| --- | --- |
| COC(=O)C1=C(C)NC(C)=C(C(=O)OCCCN2CCC(c3ccccc3)(c3ccccc3)CC2)C1c1cccc([N+](=O)[O-])c1 (centres undefined) | inactive |
| CC(=O)NC[C@H]1CN(c2ccc(N3CCOCC3)c(F)c2)C(=O)O1 | inactive |
| COc1c(O)cc2c(c1O)[C@@H]1O[C@H](CO)[C@@H](O)[C@H](O)[C@H]1OC2=O | inactive |
| CC(C)c1ccc2oc3nc(N)c(C(=O)O)cc3c(=O)c2c1 | inactive |
| Cc1ccc(NC(=O)c2ccc(CN3CCN(C)CC3)cc2)cc1Nc1nccc(-c2cccnc2)n1 | inactive |
| CC(C)CC(=O)N[C@H](C(=O)N[C@H](C(=O)N[C@@H](CC(C)C)[C@@H](O)CC(=O)N[C@@H](C)C(=O)N[C@@H](CC(C)C)[C@@H](O)CC(=O)O)C(C)C)C(C)C (Isovaleryl-VV[Sta]A[Sta]-OH) | inactive |

**Q:** Please give measured outcome of the following entry: `CN(C)CCc1c[nH]c2ccc(Cn3cncn3)cc12`
**A:** inactive

**Q:** Please give measured outcome of the following entry: COc1cc2c(cc1OC)C1CC(=O)C(CC(C)C)CN1CC2 (centres undefined)
**A:** inactive

**Q:** Please give measured outcome of the following entry: `c1cnc2cc3c(cc2n1)C1CNCC3C1`
**A:** inactive

src = PubChem BioAssay (NCATS)
